Items are presented alongside their recorded pKi.
Biological target: D(2) dopamine receptor (Homo sapiens)
Sequence (P14416 whole entry): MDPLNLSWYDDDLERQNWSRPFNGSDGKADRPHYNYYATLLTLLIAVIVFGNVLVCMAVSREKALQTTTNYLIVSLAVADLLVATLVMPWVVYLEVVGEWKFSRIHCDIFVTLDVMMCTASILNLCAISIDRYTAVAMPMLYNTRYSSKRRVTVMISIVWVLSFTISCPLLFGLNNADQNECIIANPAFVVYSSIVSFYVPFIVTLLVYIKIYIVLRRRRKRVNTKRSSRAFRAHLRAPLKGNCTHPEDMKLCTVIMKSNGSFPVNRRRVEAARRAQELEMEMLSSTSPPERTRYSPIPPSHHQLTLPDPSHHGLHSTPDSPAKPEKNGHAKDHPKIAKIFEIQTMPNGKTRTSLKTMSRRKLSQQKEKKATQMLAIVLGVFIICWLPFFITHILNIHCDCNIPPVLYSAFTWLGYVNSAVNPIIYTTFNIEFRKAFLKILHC
Where a name gives a salt, the structure may show the parent alone.
To interpret pKi, take it as minus log10 of a concentration measured in moles per litre.

Sample records with pKi:
compound="CC1NC[C@H]2c3ccc(O)c(O)c3Cc3cccc1c32 (mixture of isomers) [(+/-)-3-methyldinapsoline hydrobromide]" reported_measurement=7.40
compound="CCc1ccc2c3c1Cc1c(ccc(O)c1O)[C@@H]3CNC2 [6-ethyldinapsoline hydrobromide]" reported_measurement=7.57

Turning to the following compound.
Query :: Quick one: pKi for CCCN1Cc2cccc3c2[C@@H](C1)c1ccc(O)c(O)c1C3 (racemic) [(+/-)-2-propyldinapsoline hydrobromide] ?
Result :: 7.82
